Source of measurements: ChEMBL document CHEMBL1697781

Test system: Hepatotoxicity
assayName: FDA HLAED, alkaline phosphatase increase
conditionLabel: human
observedProperty: Alkaline Phosphatase Increase - Number of Reports

# molecule, experimentalSystem, result
data = [
    ("CC(C)OC(=O)CCC/C=C\\C[C@@H]1[C@@H](CC[C@@H](O)CCc2ccccc2)[C@H](O)C[C@@H]1O [LATANOPROST]", "Hepatotoxicity", "< 4"),
    ("O=C1CN=C(c2ccccc2)c2cc(Cl)ccc2N1CC(F)(F)F [HALAZEPAM]", "Hepatotoxicity", "< 4"),
    ("CNC(=C[N+](=O)[O-])NCCSCc1ccc(CN(C)C)o1 [RANITIDINE]", "Hepatotoxicity", ">= 4"),
    ("Cc1nccn1CC1CCc2c(c3ccccc3n2C)C1=O (stereo not given) [ONDANSETRON]", "Hepatotoxicity", ">= 4"),
    ("CCOc1ccc2ccccc2c1C(=O)N[C@@H]1C(=O)N2[C@@H]1SC(C)(C)[C@@H]2C(=O)O [NAFCILLIN]", "Hepatotoxicity", ">= 4"),
    ("C=CC[N+]1([C@H]2C[C@H]3[C@@H]4CC[C@H]5C[C@H](O)[C@@H](N6CCOCC6)C[C@]5(C)[C@H]4CC[C@]3(C)[C@H]2OC(C)=O)CCCC1.[Br-] [ROCURONIUM BROMIDE]", "Hepatotoxicity", "< 4"),
    ("C[C@@H]1C[C@H]2[C@@H]3C[C@H](F)C4=CC(=O)C=C[C@]4(C)[C@@]3(F)[C@@H](O)C[C@]2(C)[C@@]1(O)C(=O)SCF [FLUTICASONE]", "Hepatotoxicity", "< 4"),
    ("C#CCN(C)[C@H](C)Cc1ccccc1 [SELEGILINE]", "Hepatotoxicity", ">= 4"),
    ("Fc1ccc([C@@H]2CCNC[C@H]2COc2ccc3c(c2)OCO3)cc1 [PAROXETINE]", "Hepatotoxicity", ">= 4"),
    ("CCOC(=O)CCC(=O)O[C@H]1[C@H](O[C@@H]2[C@@H](C)[C@H](O[C@H]3C[C@@](C)(OC)[C@@H](O)[C@H](C)O3)[C@@H](C)C(=O)O[C@H](CC)[C@@](C)(O)[C@H](O)[C@@H](C)C(=O)[C@H](C)C[C@@]2(C)O)O[C@H](C)C[C@@H]1N(C)C [ERYTHROMYCIN ETHYLSUCCINATE]", "Hepatotoxicity", ">= 4"),
    ("C[C@]12CC[C@H]3[C@@H](CCC4=CC(=O)CC[C@@]43C)[C@@H]1CC[C@@H]2OC(=O)CCC1CCCC1 [TESTOSTERONE CYPIONATE]", "Hepatotoxicity", "< 4"),
    ("Cn1nnnc1SCC1=C(C(=O)[O-])N2C(=O)[C@@H](NC(=O)[C@H](OC=O)c3ccccc3)[C@H]2SC1.[Na+] [CEFAMANDOLE NAFATE]", "Hepatotoxicity", "< 4"),
    ("COc1cccc(C2(O)CCCCC2CN(C)C)c1 (stereo not given) [TRAMADOL]", "Hepatotoxicity", "< 4"),
    ("Cc1ccc(C)c(OCCCC(C)(C)C(=O)O)c1 [GEMFIBROZIL]", "Hepatotoxicity", "< 4"),
    ("O=C(O)C1=C(CSc2nnnn2CS(=O)(=O)O)CS[C@@H]2[C@H](NC(=O)[C@H](O)c3ccccc3)C(=O)N12 [CEFONICID]", "Hepatotoxicity", "< 4"),
]
